- Tested on: MDA-MB-231 cells
- assay_summary: cells
- condition_info: read-out: LC50; MDA-MB-231; 72 hours treatment; SRB
compounds and their reported CC50
Report the figure in µM without appending any unit label.

Suppose we examine the compound COc1ccc2[nH]c3c(c2c1)C[C@@H](CO)N[C@]31CS[C@@H]2c3c(OC(C)=O)c(C)c4c(c3[C@H](COC1=O)N1[C@@H]2[C@H]2c3c(cc(C)c(OC)c3O)C[C@@H]([C@@H]1O)N2C)OCO4 [Compound 19-S] ; what CC50 value has been reported?
0.011

Next, consider the following compound.
Suppose we examine the compound COc1ccc2[nH]c3c(c2c1)CCNC31CSC2c3c(OC(C)=O)c(C)c4c(c3C(COC1=O)N1C(C#N)C3Cc5cc(C)c(OC)c(O)c5C(C21)N3C)OCO4 (stereo not drawn) [E] ; what CC50 value has been reported?
0.00743

###

- Tested on: A549 cells
- assay_summary: cells
- condition_info: Homo sapiens, A549, 72 h, read-out: TGI
measurement_kind: IC (TGI) (nM)
Report the figure in nM without appending any unit label.

Suppose we examine the compound `COc1c(C)cc2c(c1O)[C@@H]1[C@@H]3[C@@H]4SC[C@]5(N[C@@H](CO)Cc6c5oc5ccccc65)C(=O)OC[C@@H](c5c6c(c(C)c(OC(C)=O)c54)OCO6)N3[C@@H](C#N)[C@H](C2)N1C` ; what IC (TGI) value has been reported?
1.04

###

- Tested on: A549 cells
- assay_summary: cells
- condition_info: Homo sapiens, A549, 72 h
compounds and their reported GI50
Entry format: amount then unit.

Suppose we examine the compound COc1ccc2oc3c(c2c1)CCN[C@]31CS[C@@H]2c3c(OC(C)=O)c(C)c4c(c3[C@H](COC1=O)N1[C@@H]2[C@H]2c3c(cc(C)c(OC)c3O)C[C@@H]([C@@H]1C#N)N2C)OCO4 [Compound 34] ; what GI50 value has been reported?
59.1 nM

Next, consider the following compound.
Suppose we examine the compound COc1ccc2[nH]c3c(c2c1)C[C@H](CN)N[C@]31CS[C@@H]2c3c(OC(C)=O)c(C)c4c(c3[C@H](COC1=O)N1[C@@H]2[C@H]2c3c(cc(C)c(OC)c3O)C[C@@H]([C@@H]1C#N)N2C)OCO4 [Compound 26-R] ; what GI50 value has been reported?
1.94 nM

###

- Test system: A549 cells
- assay_summary: cells
- condition_info: Homo sapiens, A549, 72 h
measurement_kind: GI50 (nM)
Report the figure in nM without appending any unit label.

Previously resolved entries follow.
Give A549 cells GI50 for COc1ccc2[nH]c3c(c2c1)CCN[C@]31CS[C@@H]2c3c(OC(C)=O)c(C)c4c(c3[C@H](COC1=O)N1[C@@H]2[C@H]2c3c(cc(C)c(OC)c3O)C[C@@H]([C@@H]1O)N2C)OCO4 [PM01183]
3.31

Give A549 cells GI50 for C=CCOC(=O)NC[C@H]1Cc2c([nH]c3ccc(OC)cc23)[C@@]2(CS[C@@H]3c4c(OC(C)=O)c(C)c5c(c4[C@H](COC2=O)N2[C@@H]3[C@H]3c4c(cc(C)c(OC)c4O)C[C@@H]([C@@H]2C#N)N3C)OCO5)N1 [Compound 25-R]
1.32

Next, consider the following compound.
Give A549 cells GI50 for COc1c(C)cc2c(c1O)[C@@H]1[C@@H]3[C@@H]4SC[C@]5(N[C@@H](C)Cc6c5[nH]c5ccccc65)C(=O)OC[C@@H](c5c6c(c(C)c(OC(C)=O)c54)OCO6)N3[C@@H](O)[C@H](C2)N1C [D]
12.5

###

- Tested on: PSN1 cells
- assay_summary: cells
- condition_info: Homo sapiens, PSN1, 72 h, read-out: TGI
compounds and their reported IC (TGI)
Entry format: amount then unit.

Suppose we examine the compound COc1ccc2[nH]c3c(c2c1)C[C@@H](CN)N[C@]31CS[C@@H]2c3c(OC(C)=O)c(C)c4c(c3[C@H](COC1=O)N1[C@@H]2[C@H]2c3c(cc(C)c(OC)c3O)C[C@@H]([C@@H]1O)N2C)OCO4 [Compound 27-S] ; what IC (TGI) value has been reported?
2.83 nM

***
Suppose we examine the compound COc1ccc2[nH]c3c(c2c1)C[C@H](CN)N[C@]31CS[C@@H]2c3c(OC(C)=O)c(C)c4c(c3[C@H](COC1=O)N1[C@@H]2[C@H]2c3c(cc(C)c(OC)c3O)C[C@@H]([C@@H]1C#N)N2C)OCO4 [Compound 26-R] ; what IC (TGI) value has been reported?
1.7 nM

Suppose we examine the compound COc1c(C)cc2c(c1O)[C@@H]1[C@@H]3[C@@H]4SC[C@]5(N[C@H](CO)Cc6c5oc5ccccc65)C(=O)OC[C@@H](c5c6c(c(C)c(OC(C)=O)c54)OCO6)N3[C@@H](C#N)[C@H](C2)N1C [Compound 38-S] ; what IC (TGI) value has been reported?
8.18 nM

Suppose we examine the compound COc1c(C)cc2c(c1O)[C@@H]1[C@@H]3[C@@H]4SC[C@]5(N[C@@H](C)Cc6c5[nH]c5ccccc65)C(=O)OC[C@@H](c5c6c(c(C)c(OC(C)=O)c54)OCO6)N3[C@@H](C#N)[C@H](C2)N1C [B] ; what IC (TGI) value has been reported?
20.6 nM

Suppose we examine the compound COc1c(C)cc2c(c1O)[C@@H]1[C@@H]3[C@@H]4SC[C@]5(N[C@@H](CN)Cc6c5[nH]c5ccccc65)C(=O)OC[C@@H](c5c6c(c(C)c(OC(C)=O)c54)OCO6)N3[C@@H](C#N)[C@H](C2)N1C [Compound 11-R] ; what IC (TGI) value has been reported?
1.89 nM

Suppose we examine the compound COc1c(C)cc2c(c1O)[C@@H]1[C@@H]3[C@@H]4SC[C@]5(NCCc6c5[nH]c5ccccc65)C(=O)OC[C@@H](c5c6c(c(C)c(OC(C)=O)c54)OCO6)N3[C@@H](O)[C@H](C2)N1C [ET-736, Ecteinascidin 736] ; what IC (TGI) value has been reported?
59.6 nM
